Hello, the source for this data is patent US20210403579A1, in case you need it.

Biological target: T1, Human ST2 (human, UniProt Q01638 19-328, limits assumed)
T1 construct: also called human ST2 protein; Interleukin 1 receptor-like 1
T1 sequence (looked up): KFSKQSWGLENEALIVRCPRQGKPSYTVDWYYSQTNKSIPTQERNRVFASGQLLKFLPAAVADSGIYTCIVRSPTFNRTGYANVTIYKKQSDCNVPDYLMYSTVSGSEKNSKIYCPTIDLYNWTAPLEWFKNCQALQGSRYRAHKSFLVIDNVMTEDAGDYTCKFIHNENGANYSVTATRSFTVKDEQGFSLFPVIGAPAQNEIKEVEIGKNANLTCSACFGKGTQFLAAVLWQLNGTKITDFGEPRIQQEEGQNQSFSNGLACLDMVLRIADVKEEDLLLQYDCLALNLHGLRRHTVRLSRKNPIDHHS
Assay: SPR (Carterra), antibody immobilized, ST2 analyte, 1:1
ATTRIBUTE MEASURED: koff (s⁻¹)
Return type: number; implicit unit s⁻¹.

Some solved cases for reference:
BINDER: Human ST2 IgG1 Antibody 103 (antibody, V domains shown, IgG1, kappa; also called ST2 Antibody 103) VH: QVQLVQSGAEVKKPGASVKVSCKASGYTFTSYYMHWVRQAPGQGLEWMGWMNPNSGNTGYAQKFQGRVTMTRDTSTSTVYMELSSLRSEDTAVYYCARETSFDYYYGMDVWGQGTTVTVSS VL: DIQMTQSPSSLSASVGDRVTITCRASQSISNWLAWYQQKPGKAPKLLIYDGSNLGTGVPSRFSGSGSGTDFTLTISSLQPEDFATYYCLQDFTYPLTFGGGTKVEIKR
koff / s⁻¹: 0.0063
--
BINDER: Human ST2 IgG1 Antibody 108 (antibody, V domains shown, IgG1, kappa; also called ST2 Antibody 108) VH: QVQLVQSGAEVKKPGASVKVSCKASGNTFTAYYMHWVRQAPGQGLEWMGIINPSGGSTSYAQKFQGRVTMTRDTSTSTVYMELSSLRSEDTAVYYCARGVGATNYWGQGTLVTVSS VL: DIQMTQSPSSLSASVGDRVTITCRASQGISNNLNWYQQKPGKAPKLLIYAASSLQSGVPSRFSGSGSGTDFTLTISSLQPEDFATYYCQQGFNFPLTFGGGTKVEIKR
koff / s⁻¹: 0.0056

We next turn to a different binder, shown below.
[in] For the binder Human ST2 IgG1 Antibody 105 (antibody, V domains shown, IgG1, kappa) VH: EVQLLESGGGLVQPGGSLRLSCAASGFTFSSYAMHWVRQAPGKGLEWVAVMSYDGRHEYYADSVKGRFTISRDNSKNTLYLQMNSLRAEDTAVYYCASTDYDIGGYSLPLDYWGQGTLVTVSS VL: DIQMTQSPSSLSASVGDRVTITCRASQSVSSWLAWYQQKPGKAPKLLIYAASNLQSGVPSRFSGSGSGTDFTLTISSLQPEDFATYYCQQSYDVPWTFGQGTRLEIKR , what koff is on record?
[out] 0.095
